- Tested on: AJ3 crude enzyme solution (esterase)
- method description: Hydrolysis of racemic ketoprofen esters in 2-phase biotransformations
- Type: biochemical, Ophiostoma novo-ulmi
- condition parameters: ester 20 g/l in cyclohexane, 24 hours, 25° C.
Quick reference for CONVERSION among some molecules

# molecule, CONVERSION, %
data = [
    ("CCCOC(=O)C(C)c1cccc(C(=O)c2ccccc2)c1 (racemic)", 25.6),
    ("COC(=O)C(C)c1cccc(C(=O)c2ccccc2)c1 (racemic)", 42.3),
    ("CCCCCCOC(=O)C(C)c1cccc(C(=O)c2ccccc2)c1 (racemic)", 2.3),
    ("CCCCOC(=O)C(C)c1cccc(C(=O)c2ccccc2)c1 (racemic)", 8.0),
    ("CCCCCOC(=O)C(C)c1cccc(C(=O)c2ccccc2)c1 (racemic)", 4.4),
]

* * *

- Test system: AJ3 crude enzyme solution (esterase)
- method description: Hydrolysis of racemic ketoprofen esters in 2-phase biotransformations
- Assay type: biochemical, Ophiostoma novo-ulmi
- condition parameters: ester 20 g/l in cyclohexane, 24 hours, 25° C.

# compound, ACID PRODUCED / mg/mL
data = [
    ("CCCCCCOC(=O)C(C)c1cccc(C(=O)c2ccccc2)c1 (racemic) [n-HEXYL]", 0.09),
    ("CCCOC(=O)C(C)c1cccc(C(=O)c2ccccc2)c1 (racemic) [n-PROPYL]", 1.0),
    ("CCCCOC(=O)C(C)c1cccc(C(=O)c2ccccc2)c1 (racemic) [n-BUTYL]", 0.3),
    ("COC(=O)C(C)c1cccc(C(=O)c2ccccc2)c1 (racemic) [METHYL]", 1.7),
    ("CCCCCOC(=O)C(C)c1cccc(C(=O)c2ccccc2)c1 (racemic) [n-PENTYL]", 0.18),
]
